The measurements presented in this section are drawn from patent US20230399332A1.

# EXPERIMENT_DESCRIPTION: Pharmacokinetics after intravenous injection or oral administration in mice
# Type: in vivo
# CONDITIONS_USED: mouse, plasma; CD-1 mice, intravenous injection, 5 mg/kg; read-out: Curve area AUC0-t
ATTRIBUTE_MEASURED: AUC(0-t) (ng·h/mL)
Answer with a number only, understood to be in ng·h/mL.

Input line: Name the recorded AUC(0-t) of the compound listed here: `CC(C)(O)Cn1nnc2cc(-c3c(-c4ccc(C#N)c(F)c4)nc4c(N5[C@@H]6CC[C@H]5[C@@H](N)C6)nccn34)c(F)cc21`
Output line: 11500

====

# EXPERIMENT_DESCRIPTION: Pharmacokinetics after intravenous injection or oral administration in mice
# Type: in vivo
# CONDITIONS_USED: mouse, plasma; CD-1 mice, intravenous injection, 5 mg/kg; read-out: Apparent volume of distribution V
ATTRIBUTE_MEASURED: Vd

Input line: Check the records and state Vd for `CC(C)(O)Cn1nnc2cc(-c3c(-c4ccc(C#N)c(F)c4)nc4c(N5[C@@H]6CC[C@H]5[C@@H](N)C6)nccn34)c(F)cc21`
Output line: 5.04 L/kg

====

# EXPERIMENT_DESCRIPTION: Pharmacokinetics after intravenous injection or oral administration in mice
# Type: in vivo
# CONDITIONS_USED: mouse, plasma; CD-1 mice, oral administration, 5 mg/kg; read-out: Half-life T1/2 (converted)
ATTRIBUTE_MEASURED: half-life (h)
A number alone suffices; assume h.

Input line: Please give measured half-life of the following entry: `CC(C)(O)Cn1nnc2cc(-c3c(-c4ccc(C#N)c(F)c4)nc4c(N5[C@@H]6CC[C@H]5[C@@H](N)C6)nccn34)c(F)cc21`
Output line: 5.86
